MEASURED TARGET: T1, Active phosphorylated His6-tagged ERK2 E320K (rat (p-0033 says mouse)), P63086
T1 chain: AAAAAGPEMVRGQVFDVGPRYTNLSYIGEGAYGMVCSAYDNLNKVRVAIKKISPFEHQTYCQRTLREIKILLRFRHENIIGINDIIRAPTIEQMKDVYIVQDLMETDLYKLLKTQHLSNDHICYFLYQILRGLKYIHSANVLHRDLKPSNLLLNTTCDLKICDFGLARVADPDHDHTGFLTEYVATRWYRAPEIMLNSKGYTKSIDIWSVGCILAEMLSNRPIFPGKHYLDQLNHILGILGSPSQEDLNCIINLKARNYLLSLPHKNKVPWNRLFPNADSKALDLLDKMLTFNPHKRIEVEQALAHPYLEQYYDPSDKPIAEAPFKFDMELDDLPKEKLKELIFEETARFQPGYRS
CONDITION INFO: modification not given; phosphorylated (active form; sites not given)
Ends that are not written are not given here.

- BINDER: "ARRKPVLPALTINP (not fully specified (some residues, N-terminus)) [MAP2K2]"
  IC50: "41 µM"
